B1: Cytoplasmic polyadenylation element-binding protein 2, residues 513 to 575; numbered along this chain, Q7Z5Q1 (parent)
chain: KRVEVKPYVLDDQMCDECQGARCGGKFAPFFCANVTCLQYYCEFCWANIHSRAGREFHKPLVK

variants of: B1; experiment: abundance fitness (aPCA) (normalised: wild type 0, dead -1); higher = more abundant; growth selection in yeast, the domain comes from the species named; details: Homo sapiens
readout.type: abundance fitness
No unit in the answer, only the number.

Use the examples below as a reference point.
{"columns": ["mutation.id", "abundance fitness"],
 "data": [
  ["E17F", -0.458],
  ["G20N", -0.499],
  ["C15D", -0.691],
  ["L38H", 0.029],
  ["P29K", -0.065],
  ["Q19I", -0.503],
  ["I49R", -0.006],
  ["F31C", -0.547]
]}

Request the reported abundance fitness associated with D12G -0.066

Request the reported abundance fitness associated with R2T -0.115

Request the reported abundance fitness associated with Y8N 0.13
